# target.entity: T1, IL-11 (UniProt P20809 22-199, limits assumed)
# T1 construct: also called IL-11 protein; IL-11 antigen
# T1 sequence (looked up): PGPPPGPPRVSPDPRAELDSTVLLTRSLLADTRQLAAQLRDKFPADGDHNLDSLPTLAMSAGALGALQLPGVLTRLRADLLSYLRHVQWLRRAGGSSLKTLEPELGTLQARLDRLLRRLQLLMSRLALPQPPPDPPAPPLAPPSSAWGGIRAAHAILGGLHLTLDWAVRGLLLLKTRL
# procedure.text: phage ELISA on IL-11
Quick list: ELISA per entry.
measured.attribute: ELISA

binder	value.measured
2F2 (scFv, As m119: scFv on phage) scFv: QVQLVQSGAEVKKPGASVKVSCKASDYTFTNYWLGWVRQAPGQGLEWMGHIYPGGGYTNYNEKFKGRVTMTRDTSTSTVYMELSSLRSEDTAVYYCARVSSGNDALDLWGQGTLVTVSSGGEGSGGGGSGGGGSEIVLTQSPATLSLSPGERATLSCRASESVDEYGISFMNWFQQKPGQAPRLLIYSASNQGSGIPARFSGSGSGTDFTLTISSLEPEDFAVYFCQQSKEVPWTFGGGTKLEIK	2.65
2F1 (scFv, As m119; the printed mutations are the same as those of 2E2) scFv: QVQLVQSGAEVKKPGASVKVSCKASDYTFTNYWLGWVRQAPGQGLEWMGHIYPGGGYTNYNEKFKGRVTMTRDTSTSTVYMELSSLRSEDTAVYYCARVSSGNDALDFWGQGTLVTVSSGGGGSGGGGSGGGGSEIVLTQSPATLSLSPGERATLSCRASESVDEYGISFMNWFQQKPGQAPRLLIYSASNQGSGIPARFSGSGSGTDFTLTISSLEPEDFAVYFCQQSKELPWTFGGGTKLEIK	2.1
1G9 (scFv, As m119: scFv on phage) scFv: QVQLVQSGAEVKQPGASVKVSCKASDYTFTNYWLGWVRQAPGQGLEWMGHIYPGGGYTNYNEKFKGRVTMTRDTSTSTVYMELSSLRSEDTAVYYCARVRSGNDALDFWGQGTLVTVSSGGGGSGGGGSGDGGSEIVLTQSPATLSLSPGERATLSCRASESVDEYGISFMNWFQQKPGQAPRLLIYSASNRGSGIPARFSGSGSGTDFTLTINSLEPEDFAVYFCQQSKEVPWTFGGGTKLEIK	2.81
1F9 (scFv, As m119: scFv on phage) scFv: QVQLVQSGAEVKKPGASVKVSCKASDYTFHNYWLGWVRQAPGQGLEWMGHIYPGGGYTNYNEKFKGRVTMTRDTSTSTVYMELSSLRSEDTAVYYCARVSSGNDALDFWGQGTLVTVSSGGGGSGGGGSGGGGSEIVLTQSPATLSLSPGERATLSCRASESVDEYGISFMNWFQQKPGQAPRLLIYSASNQGSGIPARFSGSGSGTDFTLTISSLEPEDFAVYFCQQSKELPWTFGGGTKLEIK	2.59
1F7 (scFv, As m119: scFv on phage) scFv: QVQLVQSGAEVKKPGASVKVSCKASDYTFTNYWLAWVRQAPGQGLEWMGHIYPGGGYTNYNEKFKGRVTMTRDTSTSTVYMELSSLRSEDTAVYYCARVRSGNDALDFWGQGTLVTVSSGGGGSGGGGSGGGGSEIVLTQSPATLSLSPGERATVSCRASESVDEYGISFMNWFQQKPGQAPTLLIYSASNLGSGIPARFSGSGSGTDFTLTISSLEPEDFAVYFCQQSKEVPWTFGGGTKLEIK	2.38
